# SYSTEM: Cyclin-dependent kinase 5/CDK5 activator 1 (Homo sapiens)
# Sequence (Q00535 whole entry): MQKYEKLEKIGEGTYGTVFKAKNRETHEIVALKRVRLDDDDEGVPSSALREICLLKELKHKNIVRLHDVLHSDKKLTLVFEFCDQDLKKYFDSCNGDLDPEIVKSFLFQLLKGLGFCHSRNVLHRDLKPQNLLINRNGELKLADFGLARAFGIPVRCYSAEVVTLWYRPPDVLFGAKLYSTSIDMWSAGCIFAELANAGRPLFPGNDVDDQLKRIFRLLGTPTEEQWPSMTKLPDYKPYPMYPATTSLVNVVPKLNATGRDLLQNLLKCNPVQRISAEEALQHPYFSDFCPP
# Sequence (Q15078 whole entry, further chain): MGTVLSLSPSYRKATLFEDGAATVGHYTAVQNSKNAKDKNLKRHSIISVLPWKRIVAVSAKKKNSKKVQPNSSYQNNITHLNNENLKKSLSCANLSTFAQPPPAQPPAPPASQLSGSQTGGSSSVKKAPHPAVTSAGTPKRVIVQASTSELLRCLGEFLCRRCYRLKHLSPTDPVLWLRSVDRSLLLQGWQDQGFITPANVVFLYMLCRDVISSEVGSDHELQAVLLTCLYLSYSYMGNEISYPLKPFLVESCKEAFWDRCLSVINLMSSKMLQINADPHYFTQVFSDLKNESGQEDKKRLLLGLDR
ASSAY_READOUT: IC50 (nM)
Answer with a number only, understood to be in nM.

Ask: Field request: IC50 | item: CC[C@H](CO)Nc1nc(NCc2ccccc2)n2ncc(C(C)C)c2n1
Reply: 70

Ask: What about this molecule? CC[C@@H](CO)Nc1nc(NCc2ccccc2)n2ncc(C(C)C)c2n1
Reply: 130

Ask: What about this molecule? CC[C@H](CO)Nc1nc(NCc2ccccc2)c2ncc(C(C)C)n2n1
Reply: 320

---

# SYSTEM: Cyclin-dependent kinase 2 (Homo sapiens)
# TEST_PROTOCOL: Inhibition of human recombinant CDK2/cyclin A expressed in baculovirus-infected insect cells
ASSAY_READOUT: IC50 (nM)
Answer with a number only, understood to be in nM.

Ask: Field request: IC50 | item: CC[C@H](CO)Nc1nc(NCc2ccccc2)c2ncc(C(C)C)n2n1
Reply: 220

---

# SYSTEM: CDK9/cyclin T1 (Homo sapiens)
# Sequence (O60563 whole entry): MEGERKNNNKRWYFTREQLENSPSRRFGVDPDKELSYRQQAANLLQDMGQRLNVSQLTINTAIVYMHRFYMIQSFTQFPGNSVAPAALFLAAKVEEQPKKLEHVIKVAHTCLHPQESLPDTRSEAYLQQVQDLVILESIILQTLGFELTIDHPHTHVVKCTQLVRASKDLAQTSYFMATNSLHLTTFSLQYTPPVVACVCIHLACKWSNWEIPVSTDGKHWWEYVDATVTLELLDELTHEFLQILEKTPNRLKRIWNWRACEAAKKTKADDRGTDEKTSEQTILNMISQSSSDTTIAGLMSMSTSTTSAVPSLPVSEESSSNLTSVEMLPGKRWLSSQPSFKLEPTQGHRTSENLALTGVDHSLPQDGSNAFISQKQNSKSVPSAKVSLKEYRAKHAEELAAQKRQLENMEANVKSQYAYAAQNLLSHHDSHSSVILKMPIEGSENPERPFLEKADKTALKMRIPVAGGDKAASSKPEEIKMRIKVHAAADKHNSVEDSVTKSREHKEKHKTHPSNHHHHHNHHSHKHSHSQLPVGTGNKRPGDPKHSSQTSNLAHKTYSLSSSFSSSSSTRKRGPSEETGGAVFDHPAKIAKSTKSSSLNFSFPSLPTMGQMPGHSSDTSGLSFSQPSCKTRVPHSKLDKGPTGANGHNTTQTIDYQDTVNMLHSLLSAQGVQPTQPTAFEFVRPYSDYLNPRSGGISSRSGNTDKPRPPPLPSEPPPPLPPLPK
# Sequence (P50750 whole entry): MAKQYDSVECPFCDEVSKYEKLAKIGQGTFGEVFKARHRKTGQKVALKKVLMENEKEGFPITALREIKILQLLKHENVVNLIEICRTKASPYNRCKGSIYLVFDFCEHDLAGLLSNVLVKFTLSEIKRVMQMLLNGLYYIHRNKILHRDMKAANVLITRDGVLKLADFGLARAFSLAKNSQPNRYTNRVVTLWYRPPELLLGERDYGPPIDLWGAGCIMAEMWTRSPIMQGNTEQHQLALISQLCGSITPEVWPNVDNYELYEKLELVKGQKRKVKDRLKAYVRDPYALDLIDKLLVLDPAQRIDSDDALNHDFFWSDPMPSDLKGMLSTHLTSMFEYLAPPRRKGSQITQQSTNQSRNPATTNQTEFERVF
# TEST_PROTOCOL: Inhibition of human recombinant CDK9/cyclin T expressed in baculovirus-infected insect cells
Kindly supply the reported IC50 values for the records listed here.
Answer with a number only, understood to be in nM.

Ask: Field request: IC50 | item: CC[C@H](CO)Nc1nc(NCc2ccccc2)c2ncc(C(C)C)n2n1
Reply: 200

Ask: What about this molecule? CC[C@H](CO)Nc1nc(NCc2ccccc2)n2ncc(C(C)C)c2n1
Reply: 43
